Recorded values, source the supplement of paper PMC11208160.

assay: recombinant UMI read abundance after kanamycin selection (control-corrected) (log10(CPM+1)); higher = more efficient recombination; extreme values may be limits of the assay; sequences stand for … in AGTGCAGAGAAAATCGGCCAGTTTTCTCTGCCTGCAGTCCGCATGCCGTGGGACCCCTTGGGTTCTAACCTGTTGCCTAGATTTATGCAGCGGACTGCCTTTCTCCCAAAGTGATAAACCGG…AGGTTGGTTTCACT; site = the 11-nt donor
Field: recombinant UMI read abundance (log10). Provide a value for each of the sequences that follow.
Simply state the number, no unit and no words.

Sure, the documented recombinant UMI read abundance (log10) for TAGGGATCATGGACCGGTTTTCCCGGTAATCCGTATTTGCG (site TAGGCATCTCG) is 0.735

Sure, the documented recombinant UMI read abundance (log10) for CTAGCAGCATGGACCGGTTTTCCCGGTAATCCGTATTTGAC (site CTAGTATCTGT) is 0

Sure, the documented recombinant UMI read abundance (log10) for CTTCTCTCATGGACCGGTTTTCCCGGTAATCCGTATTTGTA (site CATCTCTCTTA) is 0.954

Sure, the documented recombinant UMI read abundance (log10) for TGATGAGCATGGACCGGTTTTCCCGGTAATCCGTATTTGGG (site TAATGAGCTCC) is 0.0122

Sure, the documented recombinant UMI read abundance (log10) for GTAGCTACATGGACCGGTTTTCCCGGTAATCCGTATTTGAC (site GTAGATACTGT) is 1.02

---

test: recombinant barcode read abundance after kanamycin selection (control-corrected) (log10(CPM+1)); higher = more efficient recombination; sequences stand for … in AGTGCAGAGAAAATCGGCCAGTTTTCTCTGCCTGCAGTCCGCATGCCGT…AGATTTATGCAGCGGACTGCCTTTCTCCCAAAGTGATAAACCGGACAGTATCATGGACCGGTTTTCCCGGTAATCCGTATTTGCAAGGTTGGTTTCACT; site = the 11-nt target
readoutType: recombinant barcode read abundance (log10)
Simply state the number, no unit and no words.

Sure, the documented recombinant barcode read abundance (log10) for GAGGACTCTTGGGTTCTAACCTGTTGCCG (site GAGGACTCTCG) is 2.32

Sure, the documented recombinant barcode read abundance (log10) for GGCTGCACTTGGGTTCTAACCTGTTGCCT (site GGCGGTACTAG) is 0.504

Sure, the documented recombinant barcode read abundance (log10) for GCATCTACTTGGGTTCTAACCTGTTGCCT (site GAATCTACTAG) is 0.101

Sure, the documented recombinant barcode read abundance (log10) for ATGCGTTCTTGGGTTCTAACCTGTTGCCT (site ATGCGTTCTAG) is 1.73

Sure, the documented recombinant barcode read abundance (log10) for CCTCGCACTTGGGTTCTAACCTGTTGCCT (site CATCGCACTAG) is 0.0533

Sure, the documented recombinant barcode read abundance (log10) for CTGTAGCCTTGGGTTCTAACCTGTTGCTG (site CTGTAGCCTCA) is 0.578

Sure, the documented recombinant barcode read abundance (log10) for ATAAGGACTTGGGTTCTAACCTGTTGCTA (site ATAAGGACTTA) is 2.01

Sure, the documented recombinant barcode read abundance (log10) for CGCGCGGCTTGGGTTCTAACCTGTTGCCT (site CGCGGGGCTAG) is 0.266

Sure, the documented recombinant barcode read abundance (log10) for GTCCCCTCTTGGGTTCTAACCTGTTGCCT (site GTCTCCTCTAG) is 0.0122

Sure, the documented recombinant barcode read abundance (log10) for CTAATTCCTTGGGTTCTAACCTGTTGCAT (site CTAACTCCTAT) is 0.0994

Sure, the documented recombinant barcode read abundance (log10) for ACTAGACCTTGGGTTCTAACCTGTTGCCT (site ACTCGACCTAG) is 0.134

Sure, the documented recombinant barcode read abundance (log10) for GCCAGGGCTTGGGTTCTAACCTGTTGCCG (site GCCTGGGCTCG) is 0.0195

Sure, the documented recombinant barcode read abundance (log10) for GTCCTACCTTGGGTTCTAACCTGTTGCTA (site AGAAATACTCG) is 0.442

Sure, the documented recombinant barcode read abundance (log10) for CTATTGACTTGGGTTCTAACCTGTTGCCT (site CTATCGACTAG) is 0.246

Sure, the documented recombinant barcode read abundance (log10) for TGTAGTCCTTGGGTTCTAACCTGTTGCGT (site TGTAGTCCTAA) is 0.062

Sure, the documented recombinant barcode read abundance (log10) for AATTTGACTTGGGTTCTAACCTGTTGCCT (site AATTTGACTAG) is 0.576

Sure, the documented recombinant barcode read abundance (log10) for TATTAACCTTGGGTTCTAACCTGTTGCCT (site TATTAGCCTAG) is 0.0897

Sure, the documented recombinant barcode read abundance (log10) for TAGTACACTTGGGTTCTAACCTGTTGCAC (site TAGTACACTGT) is 1.55

Sure, the documented recombinant barcode read abundance (log10) for GATTCACCTTGGGTTCTAACCTGTTGCCT (site CATTCACCTAG) is 0.0425

Sure, the documented recombinant barcode read abundance (log10) for TTGCGAACTTGGGTTCTAACCTGTTGCAG (site TTGCGAACTCT) is 0.455

Sure, the documented recombinant barcode read abundance (log10) for TCCACAACTTGGGTTCTAACCTGTTGCCT (site TCCACAACTAG) is 0.273
